target: HBV core protein (C-terminal truncated core protein, 149 amino acids of the N-terminal assembly domain, BODIPY-FL labelled)
Construct: fused on or other part: A single cysteine added after residue 149, at position 150; It carries the BODIPY-FL maleimide label
assay_name: Biochemical capsid assembly assay (fluorescence quenching)
condition_info: assembly started with NaCl, fluorescence read after 6 min, read-out: Assembly activity
pIC50: −log10 of the molar value.
Reported pIC50 values for the following molecules.

Some solved entries appear below for comparison.
- molecule: "CCc1cccc2[nH]c(C(=O)N3CCn4ncc(C(=O)N(C)C5(c6ccc(C(=O)O)cc6)CC5)c4C3)cc12 [Example 83]"
  pIC50: "> 5.30"
- molecule: "C[C@@H](NC(=O)c1noc2c1CN(C(=O)c1cc3c(Cl)cccc3[nH]1)CC2)C(F)(F)F [Example 104]"
  pIC50: "> 5.30"

Next molecule, please.
Name the recorded pIC50 of the item Cc1cc(F)cc2[nH]c(C(=O)N3CCc4n[nH]c(C(=O)N(C)C5(c6ncc(C(=O)O)cn6)CC5)c4C3)cc12 [Example 73] in your answer.
> 5.30
